Test system: HCC-2998 colon
assay-protocol: NCI-60 one-dose screen, 48 h (100 = growth as untreated, 0 = no growth, -100 = all killed)
measurement-conditions: 10 µM unless noted
This is part of a sample that, as a whole, favours compounds with a hit. Of some 83,000 tested, about 20% had one in any assay.
Lab note: compare growth against 90%. Equal or greater, write condition met. Smaller, write condition not met.

// query I'd appreciate it if you could say whether Cc1ccc(-c2nnc(SCc3ccc(O)c4ncccc34)o2)cc1 has growth at least equal to 90%.
// result condition not met

// query I'd appreciate it if you could say whether CCNC(=O)N1CCc2cc(OC)c(OCCc3ccc(OC)c(N)c3)cc2C1c1cc(C)c(C)cc1C (stereo not drawn) has growth at least equal to 90%.
// result condition not met

// query I'd appreciate it if you could say whether CCN1CCN(Cc2ccc(C(=O)Nc3ccc(C)c(Oc4ccc(-c5[nH]nc6ncnc(N)c56)cc4)c3)cc2C(F)(F)F)CC1 has growth at least equal to 90%.
// result condition met

// query I'd appreciate it if you could say whether COc1ccc(S(=O)(=O)NCCCNc2nccc(-c3cn(C(C)(C)C)nc3-c3ccc(Cl)c(OC)c3)n2)cc1 has growth at least equal to 90%.
// result condition met

// query I'd appreciate it if you could say whether Nc1nc(N)c2c(n1)NC(c1ccc(C(F)(F)F)cc1)CC(c1ccc(Nc3nc(NCCO)nc(N4CCOCC4)n3)cc1)=N2 (stereo not drawn) has growth at least equal to 90%.
// result condition not met

// query I'd appreciate it if you could say whether COc1ccc(OC)c(-c2nc(SCC(=O)c3ccc(Br)cc3)nc(Nc3ccc(S(N)(=O)=O)cc3)c2C#N)c1 has growth at least equal to 90%.
// result condition not met

// query I'd appreciate it if you could say whether Nc1ncc(-c2ccc3ncnc(N4CCc5cc(F)c(F)cc54)c3c2)cn1 has growth at least equal to 90%.
// result condition not met

// query I'd appreciate it if you could say whether Cc1ccc2c(c1)Oc1nc(N)c(C#N)c(N)c1C2Sc1ccc(F)cc1 (stereo not drawn) has growth at least equal to 90%.
// result condition not met

// query I'd appreciate it if you could say whether Cc1nn(-c2ccccc2)c2ncnc(N/N=C/c3cccc(O)c3)c12 has growth at least equal to 90%.
// result condition not met

// query I'd appreciate it if you could say whether COc1ccccc1C(=O)Nc1cccc2c1C(=O)C(=O)C=C2 has growth at least equal to 90%.
// result condition met

// query I'd appreciate it if you could say whether O=C(CSc1nc2ccccc2c(=O)n1-c1ccccc1)Nc1ccc(-c2nc3ccc([N+](=O)[O-])cc3[nH]2)cc1 has growth at least equal to 90%.
// result condition met

// query I'd appreciate it if you could say whether O=S(=O)(NC1c2ccccc2C[C@H]1O)c1ccc(Cl)cc1Cl (stereo partly drawn) has growth at least equal to 90%.
// result condition met

// query I'd appreciate it if you could say whether COc1ccc(Cn2cc3c(c2-c2cc(OC)c(OC)c(OC)c2)CCc2c(CN4CCOCC4)noc2-3)cc1 has growth at least equal to 90%.
// result condition not met

###

Test system: SK-MEL-5 melanoma
assay-protocol: NCI-60 one-dose screen, 48 h
measurement-conditions: 10 µM unless noted
This is part of a sample that, as a whole, favours compounds with a hit. Of some 83,000 tested, about 20% had one in any assay. Active and inactive are the calls of the source. The calls were made as follows: active = growth percent below 10; inactive = the rest.
Could you please pick one outcome from this set? y (active), n (inactive)

// query How did this test come out for O=C(Nc1cccc(Cl)c1)Nc1nc2ccc([N+](=O)[O-])cc2o1 ?
// result y

// query How did this test come out for c1ccc(C(c2nc3ncncc3[nH]2)N2CSc3nc4ncncc4n3C2)cc1 (configuration not stated) ?
// result n

// query How did this test come out for COc1ccc([C@@H]2[C@@H](O)C(=O)N2c2cc(OC)c(OC)c(OC)c2)cc1F ?
// result y

// query How did this test come out for COc1cc2nc(Cl)nc(Nc3cccc(C4=Nc5c(N)nc(N)nc5NC(c5ccc(Br)cc5)C4)c3)c2cc1OC (configuration not stated) ?
// result n

// query How did this test come out for Nc1ccccc1NC(=O)c1ccc(NC(=O)C/C=C/c2cccnc2)cn1 ?
// result y

// query How did this test come out for NC(=O)c1cccc(C#CCNC[C@H]2C[C@@H](n3ccc4c(Cl)ncnc43)[C@H](O)[C@@H]2O)c1 ?
// result n

// query How did this test come out for Fc1ccc(-c2cc3nc(C(Cl)Cl)nc(-c4ccc(F)cc4)n3n2)cc1 ?
// result n
